Read-out: Phosphatase and tensin (PTEN), PTEN (gene 5728)
protocol: LTEA_HepaRG_PTEN: Life Technologies and Expression Analysis (LTEA) Assay for Phosphatase and tensin (PTEN) using HepaRG (AID 2283523)
conditionLabel: mRNA level, 48 h; actives raise or lower the signal
Calls of active or inactive are those of the source. The calls were made as follows: active = hit-call score of the fitted dose curve at least 0.9, where 1 is the maximum; inactive = score below 0.9.
Outcomes: 1.0 (active), 0.0 (inactive)

| molecule | cat |
| --- | --- |
| C#CCOC(=O)[C@@H](C)Oc1ccc(Oc2ncc(Cl)cc2F)cc1 | 0.0 |
| COCCO | 0.0 |
| CCCOC(=O)c1ccc(C(=O)OCCC)nc1 | 0.0 |
| CCCOC(=O)NCCCN(C)C | 0.0 |
| CCC(C)OC(=O)N1CCCCC1CCO (stereo unspecified) | 0.0 |
| CC(C)(c1ccc(O)cc1)c1ccc(O)cc1 | 0.0 |
| CC(C)(C)[C@@H](O)[C@@H](Cc1ccc(Cl)cc1)n1cncn1 | 0.0 |
| CCCCC(CC)CN1C(=O)C2C3C=CC(C3)C2C1=O (stereo unspecified) | 0.0 |
| CC(C)CCCCCCc1ccc(O)cc1 | 0.0 |
| CCOC(=O)C(C)Oc1ccc(Oc2nc3ccc(Cl)cc3o2)cc1 (stereo unspecified) | 0.0 |
| S=C([S-])NCCNC(=S)[S-].[Mn+2] | 1.0 |

====

Read-out: Interferon-gamma inducible Protein 10 (IP10), CXCL10 (gene 3627)
protocol: BSK_KF3CT_IP10: BioMAP Diversity Plus: KF3CT Assay for Interferon-gamma inducible Protein 10 (IP10) Biomarker Activity (AID 2283068)
conditionLabel: primary human keratinocytes with fibroblasts; actives raise or lower the signal
The source made the active and inactive calls. How the source made its calls: active means hit-call score of the fitted dose curve at least 0.9, where 1 is the maximum; inactive means score below 0.9.
Outcomes: T (active), F (inactive)

| querySmiles | cat |
| --- | --- |
| CCOC(=O)[C@H](C)Oc1ccc(Oc2nc3ccc(Cl)cc3o2)cc1 | T |
| CC(C)(c1ccc(O)cc1)c1ccc(O)cc1 | F |
| COC(=O)c1c(Cl)nn(C)c1S(=O)(=O)NC(=O)Nc1nc(OC)cc(OC)n1 | T |
| CCCCOCCOCCOCc1cc2c(cc1CCC)OCO2 | F |
| O=C(c1ccccc1)C1CCCCC1 | F |
| S=C([S-])NCCNC(=S)[S-].[Mn+2] | T |
| CN(C)C(=O)Nc1ccc(Cl)c(Cl)c1 | F |
| O=C(c1ccc(O)cc1O)c1ccc(O)cc1O | F |
| OB(O)O | F |
| CCN(CC)C(=O)c1cccc(C)c1 | F |

====

protocol: BSK_4H_Eotaxin3: BioMAP Diversity Plus: 4H Assay for Eotaxin 3 Biomarker Activity (AID 2283000);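 also: CCL26 protein level quantified by ELISA in parallel with SRB cytotoxicity check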
conditionLabel: primary human endothelial cells (HUVEC); actives raise or lower the signal
Description: BSK_4H is a cell-based, multiplexed-readout assay that uses umbilical vein endothelium, a human vascular primary cell, with measurements taken at 24 hours after chemical dosing in a 96-well plate.BSK_4H_Eotaxin3 is an assay component measured in the BSK_4H assay. It measures Eotaxin-3 antibody related to regulation of gene expression using ELISA technology.Data from the assay component BSK_4H_Eotaxin3 was analyzed into 1 assay endpoint. […]
Activity calls are given as the source filed them. The calls were made as follows: active = hit-call score of the fitted dose curve at least 0.9, where 1 is the maximum; inactive = score below 0.9.

| compound | outcome |
| --- | --- |
| O=C(c1ccccc1)C1CCCCC1 | inactive |
| CSC(=O)c1cccc2nnsc12 | inactive |
| CCOC(=O)C(C)Oc1ccc(Oc2cnc3cc(Cl)ccc3n2)cc1 (centres undefined) | inactive |
| CCOC(=O)[C@H](C)Oc1ccc(Oc2nc3ccc(Cl)cc3o2)cc1 | inactive |
